Reference for the values: patent US20150307520A1

Documented IC50 across a set of compounds
Target: p110β/p85α (Homo sapiens, UniProt P42338)
Sequence (P42338 whole entry): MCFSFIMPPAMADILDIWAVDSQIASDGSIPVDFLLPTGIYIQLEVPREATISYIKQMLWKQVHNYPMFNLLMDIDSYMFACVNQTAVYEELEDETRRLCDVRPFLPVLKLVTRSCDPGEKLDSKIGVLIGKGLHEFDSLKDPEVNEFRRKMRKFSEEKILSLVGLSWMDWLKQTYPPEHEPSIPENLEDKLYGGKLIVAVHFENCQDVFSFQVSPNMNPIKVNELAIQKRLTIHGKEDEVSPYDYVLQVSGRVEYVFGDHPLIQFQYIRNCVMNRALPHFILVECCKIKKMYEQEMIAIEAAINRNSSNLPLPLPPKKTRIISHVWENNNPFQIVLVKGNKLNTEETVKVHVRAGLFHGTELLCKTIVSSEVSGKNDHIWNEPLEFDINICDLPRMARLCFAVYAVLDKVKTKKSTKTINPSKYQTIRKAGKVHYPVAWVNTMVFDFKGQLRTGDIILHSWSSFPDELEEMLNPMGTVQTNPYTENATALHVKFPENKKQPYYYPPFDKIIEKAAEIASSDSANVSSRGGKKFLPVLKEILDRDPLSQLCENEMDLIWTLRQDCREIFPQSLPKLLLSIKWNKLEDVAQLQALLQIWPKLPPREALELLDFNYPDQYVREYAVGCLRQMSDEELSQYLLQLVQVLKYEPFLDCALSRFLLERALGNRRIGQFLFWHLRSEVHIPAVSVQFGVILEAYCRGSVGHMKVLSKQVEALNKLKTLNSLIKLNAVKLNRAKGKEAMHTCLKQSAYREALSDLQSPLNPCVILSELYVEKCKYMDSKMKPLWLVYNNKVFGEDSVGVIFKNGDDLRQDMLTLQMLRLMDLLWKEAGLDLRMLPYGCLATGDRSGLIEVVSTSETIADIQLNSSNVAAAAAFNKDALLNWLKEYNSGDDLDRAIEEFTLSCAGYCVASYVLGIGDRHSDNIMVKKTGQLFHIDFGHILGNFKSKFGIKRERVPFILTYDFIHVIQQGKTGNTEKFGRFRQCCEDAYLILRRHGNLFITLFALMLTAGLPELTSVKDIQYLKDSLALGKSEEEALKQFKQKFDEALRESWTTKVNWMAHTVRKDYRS
Sequence (P27986 2-724 partner): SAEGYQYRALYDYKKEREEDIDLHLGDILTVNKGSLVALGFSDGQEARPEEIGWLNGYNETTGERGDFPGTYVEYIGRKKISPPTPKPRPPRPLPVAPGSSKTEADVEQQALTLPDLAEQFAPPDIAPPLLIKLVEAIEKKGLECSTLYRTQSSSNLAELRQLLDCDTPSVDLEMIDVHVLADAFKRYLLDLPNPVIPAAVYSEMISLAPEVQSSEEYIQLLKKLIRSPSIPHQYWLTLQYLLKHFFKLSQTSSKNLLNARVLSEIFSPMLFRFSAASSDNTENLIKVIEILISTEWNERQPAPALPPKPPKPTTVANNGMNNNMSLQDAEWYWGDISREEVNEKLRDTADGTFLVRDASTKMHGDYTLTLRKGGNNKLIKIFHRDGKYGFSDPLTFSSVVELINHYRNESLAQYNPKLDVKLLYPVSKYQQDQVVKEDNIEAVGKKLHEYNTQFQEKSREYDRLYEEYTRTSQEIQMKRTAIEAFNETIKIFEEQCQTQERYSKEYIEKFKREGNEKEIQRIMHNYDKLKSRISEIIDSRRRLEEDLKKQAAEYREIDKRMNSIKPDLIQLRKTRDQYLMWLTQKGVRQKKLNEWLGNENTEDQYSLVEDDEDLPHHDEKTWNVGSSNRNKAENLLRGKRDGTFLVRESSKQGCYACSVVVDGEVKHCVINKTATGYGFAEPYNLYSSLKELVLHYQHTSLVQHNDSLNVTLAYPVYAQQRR
Test: Transcreener KINASE Assay, kinase inhibition of p110β/p85α
Conditions: read-out: PI3Kβ IC50
measured_parameter: IC50 (nM)

{"columns": ["compound", "measured_parameter", "obs_value"],
 "data": [
  ["N#Cc1c[nH]c2ncnc(N3C[C@@H](C#N)C[C@H]3c3nn4ccc(Cl)c4c(=O)n3-c3ccccc3)c12", "IC50", 12],
  ["C[S+]([O-])c1c[nH]c2ncnc(N3CCC[C@H]3c3nn4ccc(F)c4c(=O)n3-c3ccccc3)c12 (stereo partly drawn)", "IC50", 358],
  ["N#Cc1c[nH]c2ncnc(N3C[C@@H](F)C[C@H]3c3nn4ccc(F)c4c(=O)n3-c3ccccn3)c12", "IC50", 47],
  ["CC(=O)c1cnc(N)nc1NC(C)c1cn2ccc(Cl)c2c(=O)n1-c1cccc(F)c1 (stereo not drawn)", "IC50", 14],
  ["N#Cc1c[nH]c2ncnc(N3CCC[C@H]3c3nn4ccc(Cl)c4c(=O)n3-c3ccccc3)c12", "IC50", 34],
  ["N#Cc1c[nH]c2ncnc(N3CCC[C@H]3c3nn4ccc(Cl)c4c(=O)n3-c3ccccn3)c12", "IC50", 21],
  ["CCC(Nc1ncnc(N)c1C#N)c1cn2ccc(Cl)c2c(=O)n1-c1cccc(F)c1 (stereo not drawn)", "IC50", 172],
  ["CC(Nc1ncnc2[nH]cc(C#N)c12)c1cn2ccc(Cl)c2c(=O)n1-c1cccc(F)c1 (stereo not drawn) [Compound 76]", "IC50", 104],
  ["CC(Nc1ncnc2[nH]cnc12)c1cn2ccc(Cl)c2c(=O)n1-c1ccccc1 (stereo not drawn)", "IC50", 49],
  ["CCC(Nc1ncnc2[nH]cnc12)c1cn2ccc(Cl)c2c(=O)n1-c1cccc(F)c1 (stereo not drawn)", "IC50", 311],
  ["N#C[C@H]1C[C@@H](c2nn3ccc(Cl)c3c(=O)n2-c2ccccc2)N(c2ncnc3[nH]cnc23)C1", "IC50", 44],
  ["CC(Nc1ncnc2[nH]cc(C#N)c12)c1cc2ccc(Cl)n2c(=O)n1-c1cccc(F)c1 (stereo not drawn)", "IC50", 86],
  ["N#C[C@@H]1C[C@@H](c2nn3ccc(Cl)c3c(=O)n2-c2ccccc2)N(c2ncnc3[nH]cnc23)C1", "IC50", 269],
  ["CC(=O)c1cnc(N)nc1N1C[C@H](C)[C@H]1c1nn2ccc(C(F)(F)F)c2c(=O)n1-c1ccccc1", "IC50", 296],
  ["N#Cc1cnc(N)nc1N1CCC[C@H]1c1nn2ccc(Cl)c2c(=O)n1-c1ccccc1", "IC50", 298],
  ["CC(=O)c1cnc(N)nc1N1C[C@H](C)C1c1nn2ccc(F)c2c(=O)n1-c1ccc(F)cc1 (stereo partly drawn)", "IC50", 273],
  ["N#Cc1cnc(N)nc1N1CCC[C@H]1c1nn2ccc(Cl)c2c(=O)n1-c1ccc(F)cc1", "IC50", 197],
  ["C[C@H](Nc1nc(N)ncc1C#N)c1cc2ncc(Cl)n2c(=O)n1-c1ccccc1 (single isomer, unassigned)", "IC50", 75],
  ["CC(=O)Nc1c[nH]c2ncnc(N3CCC[C@H]3c3nn4ccc(Cl)c4c(=O)n3-c3ccccc3)c12", "IC50", 213],
  ["Cc1nc(N)nc(N2C[C@H](C)C2c2nn3ccc(Cl)c3c(=O)n2-c2ccc(F)cc2)c1C#N (stereo partly drawn)", "IC50", 22],
  ["Cc1nc(N)nc(N2C[C@H](C)C2c2nn3ccc(Cl)c3c(=O)n2-c2ccccc2)c1C#N (stereo partly drawn)", "IC50", 27],
  ["C[S+]([O-])c1c[nH]c2ncnc(N3CCC[C@H]3c3nn4ccc(Cl)c4c(=O)n3-c3cccc(F)c3)c12 (stereo partly drawn)", "IC50", 323],
  ["CC(=O)c1cnc(N)nc1N1CCCC1c1cn2ccc(Cl)c2c(=O)n1-c1ccccc1 (stereo not drawn)", "IC50", 218],
  ["CC(=O)c1cnc(N)nc1N[C@@H](C)c1cc2ncc(Cl)n2c(=O)n1-c1ccccc1", "IC50", 22],
  ["CC(Nc1ncnc2[nH]cc(F)c12)c1cn2ccc(Cl)c2c(=O)n1-c1ccccc1 (stereo not drawn)", "IC50", 174],
  ["O=c1c2c(Cl)ccn2nc([C@@H]2CCCN2c2nc(F)nc3[nH]cnc23)n1-c1ccccc1", "IC50", 120],
  ["CC(=O)c1c[nH]c2ncnc(N3CCC[C@H]3c3nn4ccc(F)c4c(=O)n3-c3ccccc3)c12", "IC50", 165],
  ["CC(=O)c1c[nH]c2ncnc(NC(C)c3cc4ncc(Cl)n4c(=O)n3-c3ccccc3)c12 (stereo not drawn)", "IC50", 463],
  ["CC(=O)c1c[nH]c2ncnc(NC(C)c3cn4ccc(Cl)c4c(=O)n3-c3ccccc3)c12 (stereo not drawn)", "IC50", 239],
  ["CC(Nc1nc(N)ncc1C#N)c1cn2ccc(Cl)c2c(=O)n1-c1ccccc1 (stereo not drawn)", "IC50", 15]
]}
